Tested on: human IL-1β
Assay: In vitro cytokines production test (LPS-stimulated human PBMC, IL-1β ELISA)
Format: cell-based
Details: 10 ng/ml LPS, 60 min pretreatment, 20 hours culture, read-out: IC50 (inhibition of IL-1β production)
Structures can show the parent of a compound that is named as a salt.
Readout type: IC50 (nM)
Dear colleague, please return just the value in nM, with no unit written.

Answered cases to consult:
Compound: O=C(Nc1ccc(C(=O)NO)cc1)OC/C=C/c1ccccc1 [Example 8]
IC50 [nM]: 29
//
Compound: O=C(CCCCc1ccccc1)Nc1ccc(C(=O)NO)cc1 [Example 1]
IC50 [nM]: 305
//
Compound: O=C(Nc1ccc(C(=O)NO)cc1)OCCCc1ccccc1 [Example 6]
IC50 [nM]: 43
//
Compound: CC(C)N1Cc2ccccc2CC1COC(=O)NCc1ccc(C(=O)NO)cc1 (centres unmarked) [Example 17, hydrochloride]
IC50 [nM]: 21

# evaluate next
Lookup: What does the data say about its IC50? Entry: O=C(Nc1ccc(C(=O)NO)cc1)OCCC(c1ccccc1)c1ccccc1 [Example 10]
Found: 101

###

Tested on: human IL-1β
Assay: In vitro cytokines production test (LPS-stimulated human PBMC, IL-1β ELISA)
Format: cell-based
Details: 10 ng/ml LPS, 60 min pretreatment, 20 hours culture, read-out: IC50 (inhibition of IL-1β production)
Where a name gives a salt, the structure may show the parent alone.
Listed here are compounds together with their documented pIC50.
Convention used: pIC50 is expressed as -log10 of the molar concentration.

Answered examples (4):
Compound: O=C(Nc1ccc(C(=O)NO)cc1)OCCC12CC3CC(CC(C3)C1)C2 [Example 3]
pIC50: 6.27

Compound: O=C(Nc1ccc(C(=O)NO)cc1)OCc1cccc2ccccc12 [Example 4]
pIC50: 7.55

Compound: CCN(CC)Cc1ccc(COC(=O)Nc2ccc(C(=O)NO)cc2)c2ccccc12 [Example 15, hydrochloride]
pIC50: 7.85

Compound: O=C(Nc1ccc(C(=O)NO)cc1)OCC1CCc2ccccc2C1 (stereo not shown) [Example 5]
pIC50: 6.86

Lookup: # query: pIC50 of entry CCCN(CCC)Cc1ccc2cc(COC(=O)Nc3ccc(C(=O)NO)cc3)ccc2c1 [Example 13, hydrochloride]
Found: 6.78

Lookup: Give its pIC50 value. Item: CCN(CC)Cc1ccc2cc(COC(=O)Nc3ccc(C(=O)NO)cc3)ccc2c1 [Example 12, hydrochloride]
Found: 7.02

Lookup: I'd like to know its pIC50. The compound in question is O=C(Nc1ccc(C(=O)NO)cc1)OC/C=C\c1ccccc1 [Example 9]
Found: 7.14

###

Catalogue of molecules with associated IC50
System: human IL-1β
Assay: In vitro cytokines production test (LPS-stimulated human PBMC, IL-1β ELISA)
Format: cell-based
Conditions: 10 ng/ml LPS, 60 min pretreatment, 20 hours culture, read-out: IC50 (inhibition of IL-1β production)
Counter-ions that a name gives are not always drawn.
Record the result as number plus unit.

Lookup: Quick check: IC50 on human IL-1β, item "O=C(Nc1ccc(C(=O)NO)cc1)OCc1ccc2ccccc2c1" ?
Found: 0.012 µM

Lookup: Lab note: need IC50 for CCCCN(CCCC)Cc1ccc2cc(COC(=O)Nc3ccc(C(=O)NO)cc3)ccc2c1 [Example 14, hydrochloride] on human IL-1β, anyone have it?
Found: 0.382 µM

Lookup: Item: CCN(CC)Cc1ccc2cc(CNC(=O)Nc3ccc(C(=O)NO)cc3)ccc2c1 [Example 16, hydrochloride] Test system: human IL-1β Read-out: IC50 Value: ?
Found: 0.01 µM

Lookup: Reported IC50 for human IL-1β, given "O=C(NCc1ccc(C(=O)NO)cc1)OCC(c1ccccc1)c1ccccc1" ?
Found: 0.163 µM
